molecular target: NL20 human bronchial epithelial cells expressing human Z-AAT (Homo sapiens, UniProt P01009, E366K); construct: expressed in transfected cells; host or cells: NL20 human bronchial epithelial cells (NL20-SI line, doxycycline added); test: AAT Function Assay (MSD Assay NL20-SI Cell Line); format: cell-based; settings: functionally active AAT (AAT-hNE complex) in supernatant of NL20 cells expressing human Z-AAT; read-out: NL20 Func. (EC50)
Sequence (P01009 25-418 E366K): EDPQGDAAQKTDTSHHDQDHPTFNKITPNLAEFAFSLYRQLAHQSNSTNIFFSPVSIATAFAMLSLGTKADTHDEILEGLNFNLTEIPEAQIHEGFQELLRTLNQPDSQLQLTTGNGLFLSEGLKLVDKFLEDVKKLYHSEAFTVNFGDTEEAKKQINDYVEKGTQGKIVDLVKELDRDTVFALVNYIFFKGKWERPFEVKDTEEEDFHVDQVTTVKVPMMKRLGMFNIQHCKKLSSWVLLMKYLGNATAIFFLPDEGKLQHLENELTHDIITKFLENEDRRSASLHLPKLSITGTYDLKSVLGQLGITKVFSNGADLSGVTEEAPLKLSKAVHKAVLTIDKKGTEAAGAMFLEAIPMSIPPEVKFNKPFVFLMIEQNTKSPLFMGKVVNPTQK
pEC50: −log10 of the molar value.
In this section we review reported pEC50 values for a set of compounds.
endpoint label: pEC50

O=C(O)[C@H]1C[C@@H](Cc2c(C3CCOCC3)n(-c3ccc(F)c(F)c3)c3cc4cn[nH]c4cc23)C1 (single isomer, unassigned) ... 5.52 to 5.94
CC(C)c1c(-c2ccc(Cl)cc2)c2cc3cn[nH]c3cc2n1CCC(=O)O ... 5.52 to 5.94
Cc1cc(-n2c(C(C)C)cc3c(C)c4[nH]ncc4cc32)ccc1F ... < 5.52
Cc1cc(-n2c(C(C)C)c(C(C)CC(=O)O)c3cc4[nH]ncc4cc32)ccc1F (single isomer, unassigned) [Compound 27] ... > 5.94
Cc1cc(-n2c(C(C)C)cc3c(F)c4[nH]ncc4cc32)ccc1F ... < 5.52
CC(C)c1c(CC2(C(=O)O)CC2)c2cc3[nH]ncc3cc2n1-c1ccc(F)cc1 ... > 5.94
CC(C)c1c(CCC(=O)N2C[C@@H](O)[C@H](O)C2)c2cc3[nH]ncc3cc2n1-c1ccc(F)cc1 ... < 5.52
CC(C)c1c(CCC(=O)O)c2c(F)c3[nH]ncc3cc2n1-c1ccc(F)cc1 ... > 5.94
Cc1cc(-n2c(C(C)C)c(CCC(=O)O)c3cc4[nH]ncc4cc32)ccc1F ... 5.52 to 5.94
Cc1cc(-n2c(C3CCOCC3)c(CC34CC(C(=O)O)(C3)C4)c3cc4[nH]ncc4cc32)ccc1F ... < 5.52
Cc1cc(-n2c(C3CCOCC3)c(C3CC(CC(=O)O)C3)c3cc4[nH]ncc4cc32)ccc1F (mixture of isomers) ... 5.52 to 5.94
O=C(O)C1CC2(C1)CC(c1c(C3CCOC3)n(-c3ccc(F)cc3)c3cc4cn[nH]c4cc13)C2 (single isomer, unassigned) [Compound 142] ... < 5.52
[2H]C([2H])([2H])C([2H])(c1c(CCC(=O)O)c2cc3[nH]ncc3cc2n1-c1ccc(F)cc1)C([2H])([2H])[2H] ... 5.52 to 5.94
Cc1cc(-n2c(C(C)C)c(C3CC4(CC(C(=O)O)C4)C3)c3cc4[nH]nc(C)c4cc32)ccc1F (racemic) [Compound 56] ... 5.52 to 5.94
CC(C)c1c(CCC(=O)O)c2cc3[nH]ncc3cc2n1-c1cccc(C(F)(F)F)c1 ... < 5.52

---

Biological target: NL20 human bronchial epithelial cells expressing human Z-AAT (Homo sapiens, UniProt P01009, E366K)
Construct: expressed in transfected cells; host or cells: NL20 human bronchial epithelial cells (NL20-SI line, doxycycline added)
Test: AAT Function Assay (MSD Assay NL20-SI Cell Line)
Type: cell-based
Settings: functionally active AAT (AAT-hNE complex) in supernatant of NL20 cells expressing human Z-AAT; read-out: NL20 Func. (EC50)
From the text: A. AAT Function Assay (MSD Assay NL20-SI Cell Line) Alpha-1 antitrypsin (AAT) is a SERPIN (serine protease inhibitor) that inactivates enzymes by binding to them covalently. This assay measured the amount of functionally active AAT in a sample in the presence of the disclosed compounds 1-215 by determining the ability of AAT to form an irreversible complex with human neutrophil Elastase (hNE). […]
The reader will find reported EC50 values listed item by item below.
endpoint label: EC50

Cc1cc(-n2c(C(C)C)c(CCC(=O)O)c3c(C)c4[nH]ncc4cc32)ccc1F ... 1.16 to 3 µM
CC(C)c1c(CCC(=O)O)c2cc3[nH]ncc3cc2n1-c1ccccc1 ... 1.16 to 3 µM
Cc1cc(-n2c(C(C)C)c(C3CC3C(=O)O)c3cc4[nH]ncc4cc32)ccc1F (single isomer, unassigned) [Compound 14] ... < 1.16 µM
CC1(c2c(S(C)(=O)=O)c3cc4[nH]ncc4cc3n2-c2ccc(F)cc2)COC1 ... > 3 µM
CC(C)c1c(CC2(C(=O)O)CC2)c2cc3[nH]ncc3cc2n1-c1cccc(C(F)(F)F)c1 ... 1.16 to 3 µM
[2H]c1n[nH]c2cc3c(CC([2H])([2H])C(=O)O)c(C(C)C)n(-c4ccc(F)cc4)c3cc12 ... 1.16 to 3 µM
Cc1cc(-n2c(C(C)C)cc3c(I)c4[nH]ncc4cc32)ccc1F ... > 3 µM
Cc1cc(-n2c(C(C)C)c(N3CCCC3=O)c3cc4[nH]ncc4cc32)ccc1F ... > 3 µM
O=C(O)C1CC2(C1)CC(c1c(C3CCOCC3)n(-c3ccc(F)c(Cl)c3)c3cc4cn[nH]c4cc13)C2 (single isomer, unassigned) [Compound 77] ... < 1.16 µM
O=C(O)C1CC(Cc2c(C3CCOCC3)n(-c3ccc(F)cc3)c3cc4cn[nH]c4cc23)C1 (racemic) ... > 3 µM
O=S1(=O)CCCN1CCCc1c(C2CCOCC2)n(-c2ccc(F)cc2)c2cc3cn[nH]c3cc12 ... 1.16 to 3 µM
Cc1cc(-n2c(C(C)C)cc3cc4[nH]ncc4cc32)ccn1 ... > 3 µM
Cc1cc(-n2c(C3CCOCC3)c(C[C@H]3C[C@@H](C(=O)O)C3)c3cc4[nH]ncc4cc32)ccc1F (single isomer, unassigned) ... < 1.16 µM
Cc1cc(-n2c(C(C)C)c(C3CC4(CC(C(=O)O)C4)C3)c3cc4[nH]ncc4cc32)ccc1F (single isomer, unassigned) [Compound 25] ... < 1.16 µM
CS(=O)(=O)c1c(C2CCOCC2)n(-c2ccc(F)cc2)c2cc3cn[nH]c3cc12 ... > 3 µM

The values you see were collected from patent US11623924B2.
